# Protocol Summary: Oral bioavailability in mouse at 5 mg/kg by LC-MS/MS analysis
# Assay type: ADME, organism-based
# Measurement Setup: in vivo
Value Type: bioavailability (%)
Numbers only, in %.

Item `Cc1c(-c2cc(Nc3cc4n(n3)CCN(C)C4)c(=O)[nH]n2)ccc(F)c1NC(=O)c1cc2ccccc2s1` has what recorded bioavailability? 34

====

# Tested on: Mus musculus
# Protocol Summary: Clearance in mouse at 1 mg/kg, iv by LC-MS/MS analysis
# Type: ADME, organism-based
# Measurement Setup: in vivo
Value Type: clearance (L/h/kg)
One number for each entry, in L/h/kg.

What reported clearance corresponds to `Cc1c(-c2cc(Nc3cc4n(n3)CCN(C)C4)c(=O)[nH]n2)ccc(F)c1NC(=O)c1cc2ccccc2s1` on Mus musculus? 2.58

====

# Target Or System: Tyrosine-protein kinase Fgr (Homo sapiens, UniProt P09769)
# Sequence (P09769 whole entry): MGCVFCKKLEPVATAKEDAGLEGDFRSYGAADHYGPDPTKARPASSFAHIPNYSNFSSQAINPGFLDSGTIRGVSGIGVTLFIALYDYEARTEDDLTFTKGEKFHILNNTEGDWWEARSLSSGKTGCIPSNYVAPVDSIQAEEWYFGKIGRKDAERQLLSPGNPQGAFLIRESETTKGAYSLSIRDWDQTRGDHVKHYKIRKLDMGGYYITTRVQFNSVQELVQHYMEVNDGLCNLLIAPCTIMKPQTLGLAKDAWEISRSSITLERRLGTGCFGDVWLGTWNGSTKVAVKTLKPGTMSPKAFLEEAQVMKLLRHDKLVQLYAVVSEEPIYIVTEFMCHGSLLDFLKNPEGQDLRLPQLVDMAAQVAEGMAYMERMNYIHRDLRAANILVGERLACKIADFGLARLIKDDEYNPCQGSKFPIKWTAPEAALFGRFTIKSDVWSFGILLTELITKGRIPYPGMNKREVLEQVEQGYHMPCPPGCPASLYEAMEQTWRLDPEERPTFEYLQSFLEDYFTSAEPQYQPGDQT
Value Type: pIC50
Numbers only, as −log10 of the molar value.

Fill blank: measured pIC50 of the molecule `Cc1c(-c2cc(Nc3cc4n(n3)CCN(C)C4)c(=O)[nH]n2)ccc(F)c1NC(=O)c1cc2ccccc2s1` is ____. 5.99

====

# Target Or System: Tyrosine-protein kinase Tec (Homo sapiens)
# Sequence (P42680 whole entry): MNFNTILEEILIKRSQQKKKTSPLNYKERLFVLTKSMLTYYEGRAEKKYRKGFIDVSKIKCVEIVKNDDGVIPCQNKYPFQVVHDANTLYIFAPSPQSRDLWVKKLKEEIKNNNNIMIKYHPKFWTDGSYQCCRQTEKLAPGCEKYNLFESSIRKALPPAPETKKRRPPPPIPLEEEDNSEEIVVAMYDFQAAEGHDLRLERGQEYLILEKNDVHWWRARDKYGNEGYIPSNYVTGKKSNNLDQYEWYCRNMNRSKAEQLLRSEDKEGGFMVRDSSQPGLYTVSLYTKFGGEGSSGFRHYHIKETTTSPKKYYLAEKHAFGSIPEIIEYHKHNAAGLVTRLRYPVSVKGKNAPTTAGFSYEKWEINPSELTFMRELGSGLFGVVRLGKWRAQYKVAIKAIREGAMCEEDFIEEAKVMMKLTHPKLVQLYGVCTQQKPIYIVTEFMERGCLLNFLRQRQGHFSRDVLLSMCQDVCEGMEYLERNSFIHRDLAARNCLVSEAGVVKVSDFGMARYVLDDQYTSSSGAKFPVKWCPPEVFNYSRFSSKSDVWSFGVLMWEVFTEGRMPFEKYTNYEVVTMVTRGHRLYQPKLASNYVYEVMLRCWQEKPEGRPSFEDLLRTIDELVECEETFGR
# Protocol Summary: Inhibition of TEC (unknown origin)
Value Type: pIC50
One number for each entry, as −log10 of the molar value.

Given the compound `Cc1c(-c2cc(Nc3cc4n(n3)CCN(C)C4)c(=O)[nH]n2)ccc(F)c1NC(=O)c1cc2ccccc2s1` , what is its reported pIC50? 6.64

====

# Target Or System: UniProtKB Q12809
# Sequence (Q12809 whole entry): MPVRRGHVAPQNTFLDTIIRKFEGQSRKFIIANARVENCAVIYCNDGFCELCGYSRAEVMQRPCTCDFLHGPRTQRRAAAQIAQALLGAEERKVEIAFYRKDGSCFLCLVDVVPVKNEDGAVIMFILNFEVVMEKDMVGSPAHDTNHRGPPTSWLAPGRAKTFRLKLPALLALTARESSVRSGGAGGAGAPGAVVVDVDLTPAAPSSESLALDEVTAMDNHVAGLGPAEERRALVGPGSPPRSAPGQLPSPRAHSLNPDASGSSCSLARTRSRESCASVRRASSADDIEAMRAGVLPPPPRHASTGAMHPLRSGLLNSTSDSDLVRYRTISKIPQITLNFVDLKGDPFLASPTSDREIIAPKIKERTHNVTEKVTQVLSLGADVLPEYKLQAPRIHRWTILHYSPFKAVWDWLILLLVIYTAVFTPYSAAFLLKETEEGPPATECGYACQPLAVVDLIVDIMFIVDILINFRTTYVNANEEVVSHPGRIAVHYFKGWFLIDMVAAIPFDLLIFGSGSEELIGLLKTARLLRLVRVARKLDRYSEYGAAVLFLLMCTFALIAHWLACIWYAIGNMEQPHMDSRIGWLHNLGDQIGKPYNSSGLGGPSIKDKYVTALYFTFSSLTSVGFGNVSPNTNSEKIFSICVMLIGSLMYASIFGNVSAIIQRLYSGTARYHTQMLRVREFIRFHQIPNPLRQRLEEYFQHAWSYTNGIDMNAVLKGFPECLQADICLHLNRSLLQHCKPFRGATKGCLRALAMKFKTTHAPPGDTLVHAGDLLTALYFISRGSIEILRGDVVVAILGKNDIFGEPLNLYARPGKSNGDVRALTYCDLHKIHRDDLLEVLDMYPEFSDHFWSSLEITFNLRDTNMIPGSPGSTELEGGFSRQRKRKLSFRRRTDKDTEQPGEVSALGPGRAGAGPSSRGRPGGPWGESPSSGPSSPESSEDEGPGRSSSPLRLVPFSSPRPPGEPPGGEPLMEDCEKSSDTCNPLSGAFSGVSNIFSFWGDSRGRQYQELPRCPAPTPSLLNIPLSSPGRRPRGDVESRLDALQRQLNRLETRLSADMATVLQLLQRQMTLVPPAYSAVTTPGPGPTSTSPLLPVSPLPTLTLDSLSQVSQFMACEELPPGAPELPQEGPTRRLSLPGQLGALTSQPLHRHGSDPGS
# Protocol Summary: Inhibition of human ERG at 10 uM
Value Type: inhibition at 10 µM (%)
Numbers only, in %.

Fill in the blank: the reported inhibition at 10 µM of `Cc1c(-c2cc(Nc3cc4n(n3)CCN(C)C4)c(=O)[nH]n2)ccc(F)c1NC(=O)c1cc2ccccc2s1` is ____. 27

====

Data export: pIC50 values recorded with Tyrosine-protein kinase BTK (Homo sapiens, UniProt Q06187).
Sequence (Q06187 whole entry): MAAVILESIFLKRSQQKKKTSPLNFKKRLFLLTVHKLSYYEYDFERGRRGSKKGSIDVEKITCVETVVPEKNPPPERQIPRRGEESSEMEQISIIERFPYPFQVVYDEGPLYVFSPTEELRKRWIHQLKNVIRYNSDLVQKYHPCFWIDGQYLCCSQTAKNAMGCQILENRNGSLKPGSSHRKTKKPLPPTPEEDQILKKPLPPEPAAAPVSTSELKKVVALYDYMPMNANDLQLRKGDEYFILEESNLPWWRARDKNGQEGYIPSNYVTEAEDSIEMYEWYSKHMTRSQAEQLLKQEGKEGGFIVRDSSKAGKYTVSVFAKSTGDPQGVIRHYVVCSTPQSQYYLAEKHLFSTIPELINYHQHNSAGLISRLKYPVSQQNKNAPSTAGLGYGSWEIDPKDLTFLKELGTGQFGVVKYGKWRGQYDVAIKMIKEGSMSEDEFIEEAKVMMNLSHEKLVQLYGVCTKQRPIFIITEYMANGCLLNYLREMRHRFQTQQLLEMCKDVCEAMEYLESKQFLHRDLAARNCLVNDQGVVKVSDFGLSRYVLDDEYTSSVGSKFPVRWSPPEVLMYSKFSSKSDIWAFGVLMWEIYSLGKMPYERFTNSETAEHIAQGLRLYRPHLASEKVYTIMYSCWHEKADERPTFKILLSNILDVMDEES
Answers are plain numbers, as −log10 of the molar value.

# Smi, pIC50
data = [
    ("Cc1ccc(-c2cc(Nc3cc4n(n3)CCN(C)C4)c(=O)[nH]n2)c(F)c1NC(=O)c1cc2ccccc2s1", 7.96),
]

Would you kindly look at the next entry?
API: value(readout= pIC50, system= Tyrosine-protein kinase BTK (Homo sapiens, UniProt Q06187), query= `Cc1c(-c2cc(Nc3cc4n(n3)CCN(C)C4)c(=O)[nH]n2)ccc(F)c1NC(=O)c1cnc(C(C)(C)C)cn1` ) 8.40

====

# Protocol Summary: Oral bioavailability in dog at 5 mg/kg by LC-MS/MS analysis
# Type: ADME, organism-based, Canis lupus familiaris
# Measurement Setup: in vivo
Value Type: bioavailability (%)
One number for each entry, in %.

Item `Cc1c(-c2cc(Nc3cc4n(n3)CCN(C)C4)c(=O)[nH]n2)ccc(F)c1NC(=O)c1cc2ccccc2s1` has what recorded bioavailability? 65

====

Answer each item with its documented pIC50.
# Target Or System: Tyrosine-protein kinase BTK (Mus musculus, UniProt P35991)
# Sequence (P35991 whole entry): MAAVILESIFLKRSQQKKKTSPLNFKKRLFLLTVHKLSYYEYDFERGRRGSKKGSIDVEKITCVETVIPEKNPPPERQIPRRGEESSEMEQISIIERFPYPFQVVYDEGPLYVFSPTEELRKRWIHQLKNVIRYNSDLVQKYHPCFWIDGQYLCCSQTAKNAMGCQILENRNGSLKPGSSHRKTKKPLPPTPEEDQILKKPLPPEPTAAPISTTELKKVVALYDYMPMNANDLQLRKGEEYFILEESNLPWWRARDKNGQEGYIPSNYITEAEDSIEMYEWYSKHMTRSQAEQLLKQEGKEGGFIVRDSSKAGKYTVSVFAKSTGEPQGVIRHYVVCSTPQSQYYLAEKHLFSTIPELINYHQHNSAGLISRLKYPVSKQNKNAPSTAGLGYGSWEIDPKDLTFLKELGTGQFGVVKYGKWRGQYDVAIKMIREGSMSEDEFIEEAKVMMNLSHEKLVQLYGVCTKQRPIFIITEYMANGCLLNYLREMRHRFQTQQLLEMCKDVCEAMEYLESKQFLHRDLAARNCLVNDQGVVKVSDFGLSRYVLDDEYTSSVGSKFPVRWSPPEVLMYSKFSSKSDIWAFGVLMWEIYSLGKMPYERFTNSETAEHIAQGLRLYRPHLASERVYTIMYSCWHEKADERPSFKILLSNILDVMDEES
# Protocol Summary: Inhibition of BTK in Balb/c mouse B cells assessed as inhibition of anti-IgM-stimulated CD86 expression by flow cytometry
Numbers only, as −log10 of the molar value.

# Smi, Target Or System, pIC50
measured = [
    ("Cc1c(-c2cc(Nc3cc4n(n3)CCN(C)C4)c(=O)[nH]n2)ccc(F)c1NC(=O)c1cc2ncccc2s1", "Tyrosine-protein kinase BTK (Mus musculus, UniProt P35991)", 6.17),
]

Provide reported pIC50 for each item, in the same order as listed.
1. Cc1c(NC(=O)c2cc3ccccc3s2)cccc1-c1cc(Nc2cc3n(n2)CCN(C)C3)c(=O)[nH]n1
2. Cc1c(-c2cc(Nc3cc4n(n3)CCN(C)C4)c(=O)[nH]n2)ccc(F)c1NC(=O)c1cc2cccnc2s1
3. Cc1c(-c2cc(Nc3cc4n(n3)CCN(C)C4)c(=O)[nH]n2)ccc(F)c1NC(=O)c1cnc(C(C)(C)C)cn1

1: 7.39; 2: 6.13; 3: 7.05
